Hello, the source for this data is the supplement of paper PMC11061612, in case you need it.

Test system: KYM-1 (Rhabdomyosarcoma)
Assay: combination Emax (second highest fraction inhibited in the dose matrix, 72 h); higher = more inhibition; extreme values may be limits of the assay
Is combination Emax at least 0.8? Then yes. If not, no.

Cc1cc2ncnn2cc1Nc1ncc2c(n1)n(C1CCOCC1)c(=O)n2C [AZD7648] + O=C(c1cc(Cc2n[nH]c(=O)c3ccccc23)ccc1F)N1CCN(C(=O)C2CC2)CC1 [Olaparib] (first compound max 10 µM, 7x7, partner max 10 µM)
no
NC1(C(=O)N[C@@H](CCO)c2ccc(Cl)cc2)CCN(c2ncnc3[nH]ccc23)CC1 [Capivasertib] + C[C@@H]1COCCN1C2=NC(=NC(=C2)C3(CC3)[S@](=N)(=O)C)C4=C5C=CNC5=NC=C4 [AZD6738] (first compound max 10 µM, 7x7, partner max 10 µM)
yes
CC1(C)CCC(CN2CCN(c3ccc(C(=O)NS(=O)(=O)c4ccc(NCC5CCOCC5)c([N+](=O)[O-])c4)c(Oc4cnc5[nH]ccc5c4)c3)CC2)=C(c2ccc(Cl)cc2)C1 [Venetoclax] + C[C@@H]1COCCN1C2=NC(=NC(=C2)C3(CC3)[S@](=N)(=O)C)C4=C5C=CNC5=NC=C4 [AZD6738] (first compound max 1 µM, 7x7, partner max 10 µM)
yes
CCc1c2c(nc3ccc(O)cc13)-c1cc3c(c(=O)n1C2)COC(=O)[C@]3(O)CC [SN-38] + O=C(c1cc(Cc2n[nH]c(=O)c3ccccc23)ccc1F)N1CCN(C(=O)C2CC2)CC1 [Olaparib] (first compound max 0.3 µM, 7x7, partner max 10 µM)
yes
Cc1c2c(nn1C)CSCc1cc(n(C)n1)CSc1cc(c3ccccc3c1)OCCCc1c(C(=O)O)n(C)c3c-2c(Cl)ccc13 [AZD5991] + C[C@@H](Nc1cc(F)cc(F)c1)c1cc(C(=O)N(C)C)cc2c(=O)cc(N3CCOCC3)oc12 [AZD8186] (first compound max 1 µM, 7x7, partner max 3 µM)
no
C[C@@H](c1ccc2nccn2c1)n1nnc2ncc(-c3cnn(C)c3)nc21 [Savolitinib] + CC1(C)CCC(CN2CCN(c3ccc(C(=O)NS(=O)(=O)c4ccc(NCC5CCOCC5)c([N+](=O)[O-])c4)c(Oc4cnc5[nH]ccc5c4)c3)CC2)=C(c2ccc(Cl)cc2)C1 [Venetoclax] (first compound max 1 µM, 7x7, partner max 1 µM)
no
COc1nnc2ccc(N3CCC(c4ccc(OCCN5CCN(C)C(=O)[C@H]5C)cc4)CC3)nn12 [AZD5153] + Cc1c2c(nn1C)CSCc1cc(n(C)n1)CSc1cc(c3ccccc3c1)OCCCc1c(C(=O)O)n(C)c3c-2c(Cl)ccc13 [AZD5991] (first compound max 1 µM, 7x7, partner max 1 µM)
yes
COc1cccc(OCCCN)c1-c1cc(Nc2cnc(C#N)cn2)n[nH]1 [Prexasertib] + C[C@@H]1COCCN1C2=NC(=NC(=C2)C3(CC3)[S@](=N)(=O)C)C4=C5C=CNC5=NC=C4 [AZD6738] (first compound max 1 µM, 7x7, partner max 10 µM)
yes

Problem: Check the entry C[C@@H]1COCCN1c1cc(C2([S@](C)(=N)=O)CC2)nc(-c2ccnc3[nH]ccc23)n1 [AZD6738] + Nc1ccn([C@@H]2O[C@H](CO)[C@@H](O)C2(F)F)c(=O)n1 [Gemcitabine] (first compound max 10 µM, 7x7, partner max 0.3 µM) : does combination Emax equal or exceed 0.8?
Result: yes

Problem: Please answer likewise for O=C(c1cc(Cc2n[nH]c(=O)c3ccccc23)ccc1F)N1CCN(C(=O)C2CC2)CC1 [Olaparib] + COc1nnc2ccc(N3CCC(c4ccc(OCCN5CCN(C)C(=O)[C@H]5C)cc4)CC3)nn12 [AZD5153] (first compound max 10 µM, 7x7, partner max 1 µM)
Result: yes

Problem: Another compound to look at: NC1(C(=O)N[C@@H](CCO)c2ccc(Cl)cc2)CCN(c2ncnc3[nH]ccc23)CC1 [Capivasertib] + CCN(CCO)CCCOc1ccc2c(Nc3cc(CC(=O)Nc4cccc(F)c4)[nH]n3)ncnc2c1 [AZD2811] (first compound max 10 µM, 7x7, partner max 1 µM)
Result: no

Problem: Subsequent entry: CC1(C)CCC(CN2CCN(c3ccc(C(=O)NS(=O)(=O)c4ccc(NCC5CCOCC5)c([N+](=O)[O-])c4)c(Oc4cnc5[nH]ccc5c4)c3)CC2)=C(c2ccc(Cl)cc2)C1 [Venetoclax] + C[C@@H](Nc1cc(F)cc(F)c1)c1cc(C(=O)N(C)C)cc2c(=O)cc(N3CCOCC3)oc12 [AZD8186] (first compound max 1 µM, 7x7, partner max 3 µM)
Result: no

Problem: And then Cn1cnc2c(F)c(Nc3ccc(Br)cc3Cl)c(C(=O)NOCCO)cc21 [Selumetinib] + CCN(CCO)CCCOc1ccc2c(Nc3cc(CC(=O)Nc4cccc(F)c4)[nH]n3)ncnc2c1 [AZD2811] (first compound max 10 µM, 7x7, partner max 1 µM) , what is it?
Result: no

* * *

System: LOUCY (T-Lymphoblastic Leukemia)
Experiment: combination Emax (second highest fraction inhibited in the dose matrix, 72 h); higher = more inhibition; extreme values may be limits of the assay
measurementLabel: combination Emax
Lab note: write the figure by itself, no unit.

Example entries and their recorded answers appear below.
CC1(C)CCC(CN2CCN(c3ccc(C(=O)NS(=O)(=O)c4ccc(NCC5CCOCC5)c([N+](=O)[O-])c4)c(Oc4cnc5[nH]ccc5c4)c3)CC2)=C(c2ccc(Cl)cc2)C1 [Venetoclax] + COc1cc(Nc2ncc3c(n2)-c2ccc(Cl)cc2C(c2c(F)cccc2OC)=NC3)ccc1C(=O)O [Alisertib] (first compound max 1 µM, 7x7, partner max 10 µM)
1
COc1nnc2ccc(N3CCC(c4ccc(OCCN5CCN(C)C(=O)[C@H]5C)cc4)CC3)nn12 [AZD5153] + CC1(C)CCC(CN2CCN(c3ccc(C(=O)NS(=O)(=O)c4ccc(NCC5CCOCC5)c([N+](=O)[O-])c4)c(Oc4cnc5[nH]ccc5c4)c3)CC2)=C(c2ccc(Cl)cc2)C1 [Venetoclax] (first compound max 1 µM, 7x7, partner max 1 µM)
1

Query compound follows.
Problem: Requested read-out: combination Emax. Entry: C[C@@H]1COCCN1c1cc(C2([S@](C)(=N)=O)CC2)nc(-c2ccnc3[nH]ccc23)n1 [AZD6738] + C1CC(C1)(C(=O)[O-])C(=O)[O-].N.N.[Pt+2] [Carboplatin] (first compound max 10 µM, 7x7, partner max 10 µM)
Result: 0.972

* * *

System: JHH-1 (Hepatocellular Carcinoma)
Assay: combination Emax (second highest fraction inhibited in the dose matrix, 72 h); higher = more inhibition; extreme values may be limits of the assay
// label = Met if combination Emax is not less than 0.4, otherwise Not met

Illustrative cases are given below, each with its answer.
Cc1cc2ncnn2cc1Nc1ncc2c(n1)n(C1CCOCC1)c(=O)n2C [AZD7648] + CCN(CCO)CCCOc1ccc2c(Nc3cc(CC(=O)Nc4cccc(F)c4)[nH]n3)ncnc2c1 [AZD2811] (first compound max 10 µM, 7x7, partner max 1 µM)
Not met
COc1cccc(OCCCN)c1-c1cc(Nc2cnc(C#N)cn2)n[nH]1 [Prexasertib] + CN(C)CCCOc1ccc(-c2ccc3ncc4c(c3c2)n(C2CCOCC2)c(=O)n4C)cn1 [AZD0156] (first compound max 1 µM, 7x7, partner max 1 µM)
Met
Cc1cc2ncnn2cc1Nc1ncc2c(n1)n(C1CCOCC1)c(=O)n2C [AZD7648] + C[C@@H]1COCCN1C2=NC(=NC(=C2)C3(CC3)[S@](=N)(=O)C)C4=C5C=CNC5=NC=C4 [AZD6738] (first compound max 10 µM, 7x7, partner max 10 µM)
Met
COc1cccc(OCCCN)c1-c1cc(Nc2cnc(C#N)cn2)n[nH]1 [Prexasertib] + O=C(c1cc(Cc2n[nH]c(=O)c3ccccc23)ccc1F)N1CCN(C(=O)C2CC2)CC1 [Olaparib] (first compound max 1 µM, 7x7, partner max 10 µM)
Met
CN(C)CCCOc1ccc(-c2ccc3ncc4c(c3c2)n(C2CCOCC2)c(=O)n4C)cn1 [AZD0156] + O=C(c1cc(Cc2n[nH]c(=O)c3ccccc23)ccc1F)N1CCN(C(=O)C2CC2)CC1 [Olaparib] (first compound max 3 µM, partner max 3 µM)
Not met

Problem: I'd appreciate it if you could say whether CC1(C)CCC(CN2CCN(c3ccc(C(=O)NS(=O)(=O)c4ccc(NCC5CCOCC5)c([N+](=O)[O-])c4)c(Oc4cnc5[nH]ccc5c4)c3)CC2)=C(c2ccc(Cl)cc2)C1 [Venetoclax] + C[C@@H]1COCCN1C2=NC(=NC(=C2)C3(CC3)[S@](=N)(=O)C)C4=C5C=CNC5=NC=C4 [AZD6738] (first compound max 1 µM, 7x7, partner max 10 µM) has combination Emax at least equal to 0.4.
Result: Met

Problem: Can you handle CN(CCO)CC[C@H](CSc1ccccc1)Nc1ccc(S(=O)(=O)NC(=O)c2ccc(N3CCC([C@@H](O)c4ccccc4-c4ccc(Cl)cc4)CC3)cc2)cc1S(=O)(=O)C(F)(F)F [AZD4320] + CN(C)CCCOc1ccc(-c2ccc3ncc4c(c3c2)n(C2CCOCC2)c(=O)n4C)cn1 [AZD0156] (first compound max 1 µM, 7x7, partner max 1 µM) next?
Result: Met
